Molecular target: T1, CD3 expressed on cell-surface of primary human T cells (human, UniProt P07766 23-207; P04234 22-171)
T1 construct: also called cell-surface CD3; human CD3
T1 sequence (P07766 23-207 limits assumed, chain 1 of 2): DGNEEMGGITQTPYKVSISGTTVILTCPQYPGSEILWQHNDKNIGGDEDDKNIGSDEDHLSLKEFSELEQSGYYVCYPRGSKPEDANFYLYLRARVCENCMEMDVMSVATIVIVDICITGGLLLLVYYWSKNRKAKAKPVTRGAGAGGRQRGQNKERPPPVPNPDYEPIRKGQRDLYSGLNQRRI
T1 sequence (P04234 22-171 limits assumed, chain 2 of 2): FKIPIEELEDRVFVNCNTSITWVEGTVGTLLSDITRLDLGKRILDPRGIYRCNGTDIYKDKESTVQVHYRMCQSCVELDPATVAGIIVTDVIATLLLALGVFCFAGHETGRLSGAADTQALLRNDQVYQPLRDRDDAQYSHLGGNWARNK
Test: flow cytometry competition vs murine SP34-AF488 on human T cells, average
Kindly state IC50 for each of the entries shown.
The reply should be a number in µg/mL, with the unit left off.

For huSP34.13.9 Fab-HF (Fab, V domains shown) VH: EVQLVESGGGLVQPGGSLRLSCAASGFTFSTYAMNWVRQAPGKGLEWVGRIRSKYNNYATYYAASVKGRFTISRDDSKNTLYLQMNSLRTEDTAVYYCVRHGNFGHSYVSWFAYWGQGTLVTVSS VL: QAVVTQPPSLTVSPGGTVTLTCGSSTGAVTTGHYANWVQQKPGQAPRGLIGGTNKRAPGVPARFSGSLSGGKAALTISGAQPEDEAEYYCALWYSNLWVFGGGTKLTVL , what is its reported IC50? 0.36

What do you have for huSP34.11.10 Fab-HF (Fab, V domains shown) VH: EVQLVESGGGLVQPGGSLRLSCAASGFTFSTYAMNWVRQAPGKGLEWVGRIRSKYNNYATYYAASVKGRFTISRDDSKNSLYLQMNSLRTEDTAVYYCVRHGNFGHSYVSWFAYWGQGTLVTVSS VL: QAVVTQPPSLTVSPGGTVTLTCGSSTGAVTTGHYANWVQQKPGQAPRGLIGGTNKRAPGVPARFSGSLSGGKAALTISGAQPEDEAEYYCALWYSNRWVFGGGTKLTVL ? 0.25
